Data provenance: paper PMC9490236

assay: Pharmacokinetics and oral bioavailability of D8.3.p1 and D10.1 in Balb/C female mice (PO, SQ, IV); assay type: in vivo; conditions: female, Balb/C, mouse, plasma, iv, […], D10.1 IV […], individual mice M1, M2, M3; read-out: CLP
READOUT KIND: clearance
A bare number is not enough; add the unit after it.

q: Query: clearance; subject: "CC[C@H](C)[C@@H]1NC(=O)[C@@H](CC(C)C)NC(=O)[C@H](CC(C)C)N(C)C(=O)[C@H](Cc2ccccc2)NC(=O)CN(C)C(=O)[C@@H]2CCCN2C(=O)[C@H](C(C)C)NC(=O)[C@H](Cc2ccccc2)N(C)C(=O)[C@H]2CCCN2C(=O)[C@H](CC(C)C)NC1=O"
a: 3.46 mL/min/kg
